Let's look at some IC50 data for UniProtKB Q9Y233 that I collected from the literature.

[
  {
    "Molecule smiles": "O=C1c2c(cccc2N2CCC3(COC3)C2)CN1CCc1ccc2ccccc2n1",
    "IC50": "< 100 nM"
  },
  {
    "Molecule smiles": "Cc1nc(C)c(C)c(-c2cnn(C)c2C(=O)Nc2cc3nc(-c4ccccc4)nn3cc2F)n1",
    "IC50": "< 5 nM"
  }
]

Next molecule, IC50 to be filled in.
Lookup: Lab request: please report IC50 under test system UniProtKB Q9Y233 for `Cn1nc(-c2ccc3ccccc3n2)cc1NC(=O)c1nc(C2CC2)ccc1Nc1cncnc1`
Found: < 1 nM
